src = PubChem BioAssay (NCI)

# System: NCI-H226 lung
# PROCEDURE_DETAILS: NCI-60 one-dose screen, 48 h (100 = growth as untreated, 0 = no growth, -100 = all killed)
# EXPERIMENTAL_SETUP: 10 µM unless noted
This is part of a sample that, as a whole, favours compounds with a hit. Of some 83,000 tested, about 20% had one in any assay. Activity calls are given as the source filed them. The calls were made as follows: active = growth percent below 10; inactive = the rest.

| COMPOUND | SYSTEM | growth |
| --- | --- | --- |
| N=C1CC(=O)NN1C(=O)CSc1nc2sc3c(c2c(=O)n1-c1ccc(Cl)cc1)CCCC3 | NCI-H226 lung | 103% (inactive) |
| O=C(CN1CCOCC1)NNc1ncnc2ccccc12 | NCI-H226 lung | 107% (inactive) |
| COc1ccc(-c2cc(C(=O)N=Nc3c(O)[nH]c4ccccc34)c3ccccc3n2)cc1OC | NCI-H226 lung | 86.2% (inactive) |
| O=C(NNc1nc2cc(F)ccc2n2c(CN3CC4(COC4)C3)ccc12)c1cnccn1 | NCI-H226 lung | 7.31% (active) |
| Cc1nc(-c2cc3ccccc3oc2=O)ccc1C(=O)/C=C/c1ccccn1 | NCI-H226 lung | 88.7% (inactive) |
| COc1cccc(NC2=CC(=O)C(C)=C(C)C2=O)c1 | NCI-H226 lung | 97% (inactive) |
| c1ccc2c(NCCCN3CCOCC3)c3oc4ccccc4c3nc2c1 | NCI-H226 lung | -11.3% (active) |
| NS(=O)(=O)c1cccc(Nc2nc(SCC(=O)c3ccc(Br)cc3)nc3ccccc23)c1 | NCI-H226 lung | 4.97% (active) |
| O=C(N/N=C/c1ccco1)c1[nH]c2ccc(Br)cc2c1-c1ccccc1 | NCI-H226 lung | 50.1% (inactive) |
| COc1cc2cc(Oc3ccc(NC(=O)c4cccc(C(F)(F)F)c4)cc3)c(C)nc2cc1OCCN1CCCCC1 | NCI-H226 lung | 103% (inactive) |
| COc1ccc(CNS(=O)(=O)/N=C2\NC(=O)NC2=C(Cl)Cl)cc1 | NCI-H226 lung | 46.1% (inactive) |
| COc1ccc(N/N=C/c2c(-c3ccc(S(C)(=O)=O)cc3)nc3ccccn23)cc1 | NCI-H226 lung | 71% (inactive) |
| Cc1sc2nc(NCc3ccccc3Cl)[nH]c(=O)c2c1C | NCI-H226 lung | 88.5% (inactive) |
| O=C1Nc2ccccc2Oc2ccc(S(=O)(=O)CC3CO3)cc21 (stereo not given) | NCI-H226 lung | 95.7% (inactive) |
| O=C(CSc1nc2sc3c(c2c(=O)n1-c1ccc(Cl)cc1)CCCC3)NNC(=O)Nc1cccc(C(F)(F)F)c1 | NCI-H226 lung | 32.6% (inactive) |
| Cc1ccc2ccc3ccc(C)nc3c2n1.Cc1ccc2ccc3ccc(C)nc3c2n1.Oc1c(Cl)cc(Cl)c2ccc(CN3CCCCC3)nc12.[Ru] | NCI-H226 lung | -69% (active) |
| Nc1c(C(=O)Nc2ccc(Cl)cc2)sc2nc(-c3cnccn3)cc(-c3cccs3)c12 | NCI-H226 lung | 13.2% (inactive) |
| O=c1[nH]c2ccccc2cc1CSc1ccccc1Nc1nccc(-c2ccc(C(F)(F)F)cc2)n1 | NCI-H226 lung | 56.8% (inactive) |
| CO/N=C1\CCc2c(sc(NC(=O)c3cccc(C(F)(F)F)c3)c2C(N)=O)C1 | NCI-H226 lung | -10.4% (active) |
| COc1cc(/C=C/C(=O)c2cc(OC)c(OC)c(OC)c2)ccc1OCc1ccccc1 | NCI-H226 lung | 48.6% (inactive) |

====

# System: MALME-3M melanoma
# PROCEDURE_DETAILS: NCI-60 one-dose screen, 48 h (100 = growth as untreated, 0 = no growth, -100 = all killed)
# EXPERIMENTAL_SETUP: 10 µM unless noted
The panel holds about 83,000 compounds, 20% with a hit somewhere; the sample as a whole holds those more often.
PROPERTY_LABEL: growth (%)

| COMPOUND | RECORDED_VALUE |
| --- | --- |
| Cc1ccc(C(=O)Nc2cccc(C(F)(F)F)c2)cc1Nc1nc(-c2cnccn2)nc2c1cnn2C | -15.3 |
| O=C1Nc2ccccc2Oc2ccc(S(=O)(=O)CC3CO3)cc21 (stereo not given) | 87.7 |
| Nc1c(C(=O)Nc2ccc(C(F)(F)F)cc2)sc2nc(-c3cnccn3)cc(-c3cccs3)c12 | 89 |
| N=C1CC(=O)NN1C(=O)CSc1nc2sc3c(c2c(=O)n1-c1ccc(Cl)cc1)CCCC3 | 90.5 |
| CCCCCCNC(=O)Oc1ccc(/C(=C(/C)c2ccccc2)c2ccc(OCCN3CCCCCC3)cc2)cc1 | 12.2 |
| Cc1cc2nc3c4cc(Cl)ccc4n(CC(=O)NCCN(C)C)c3nc2cc1C | -66.9 |
| Fc1ccc(-c2nc(C(Cl)Cl)nc3cc(-c4ccccc4)nn23)cc1 | -15 |
| Cn1c(SCC(=O)c2cccs2)nc2ccccc2c1=O | 102 |
| CC(C)(C)Nc1nc2c(OCCc3ccccc3)cccn2c1-c1ccc(O)cc1 | 62.5 |
| CC(C)(C)Nc1nc2c(OCCc3ccccc3)cccn2c1-c1cccc(F)c1 | -10.8 |

====

# System: IGROV1 ovarian
# PROCEDURE_DETAILS: NCI-60 one-dose screen, 48 h (100 = growth as untreated, 0 = no growth, -100 = all killed)
# EXPERIMENTAL_SETUP: 10 µM unless noted
Compounds without any hit were thinned out: in the full panel of roughly 83,000, 20% have a hit.
Reported growth values for a set of compounds

| SMILES_INPUT | growth [%] |
| --- | --- |
| C#Cc1nc(C2=C(C)C(=O)/C(=N/OC(C)=O)C2)cs1 | -37.2 |
| Cc1ccc(CNS(=O)(=O)/N=C2\NC(=O)NC2=C(Cl)Cl)cc1 | 101 |
| CCN(CC)c1ccc(C=O)c(OCc2cn(CC(=O)Nc3ccc(Cl)cc3)nn2)c1 | 74.7 |
| Cc1ccccc1NC(=O)/C=C/c1ccc(OCCOc2ccc3c(C)cc(=O)oc3c2)cc1 | 103 |
| O=C1[C@H]2Cc3c([nH]c4ccccc34)[C@@H](c3ccc(Br)cc3)N2C(=O)CN1C1CCN(Cc2ccccc2)CC1 | 18.7 |

====

# Tested on: SF-268 CNS
# PROCEDURE_DETAILS: NCI-60 one-dose screen, 48 h (100 = growth as untreated, 0 = no growth, -100 = all killed)
# EXPERIMENTAL_SETUP: 10 µM unless noted
The panel holds about 83,000 compounds, 20% with a hit somewhere; the sample as a whole holds those more often. The source made the active and inactive calls. How the source made its calls: active means growth percent below 10; inactive means the rest.
A collection of compounds and their measured growth

| COMPOUND | SYSTEM | growth |
| --- | --- | --- |
| COc1ccc(-c2nc3ccc(-c4nnc(SCC(=O)Nc5ccc(C(=O)/C=C/c6ccc(Cl)cc6)cc5)o4)cc3[nH]2)cc1OC | SF-268 CNS | 106% (inactive) |
| COc1ccc([C@@H]2c3[nH]c4ccccc4c3CC3C(=O)N(C4CCN(Cc5c(F)cccc5F)CC4)CC(=O)N32)c(OC)c1 (some centres undefined) | SF-268 CNS | 55% [5.26 µM] (inactive) |
| COc1ccc(-n2c(SCC(=O)Nc3ccc(-c4nc5ccccc5[nH]4)cc3)nc3ccccc3c2=O)cc1 | SF-268 CNS | 42.6% (inactive) |
| COc1ccc(C(=O)/C=C/c2ccc(OCc3ccc(C)cc3)c(OC)c2)cc1OC | SF-268 CNS | 72.4% (inactive) |
| O=C1Nc2cc(Cl)ccc2/C1=C\c1ccc(OCc2ccc(Br)cc2F)cc1 | SF-268 CNS | -11.9% (active) |
| CN(C)CCCOc1c2ccccc2nc2c1oc1ccc(Cl)cc12 | SF-268 CNS | 14.6% (inactive) |
| O=C(c1ccc(O)cc1)C1[C@H](c2ccc(Cl)cc2)[C@@H](c2ccccc2)NC12C(=O)Nc1ccc(Cl)cc12 (some centres undefined) | SF-268 CNS | 37.7% (inactive) |
| CC(=O)Oc1ccccc1C(=O)Nc1cc(C(C)C)ccc1C | SF-268 CNS | 19.8% (inactive) |
| NC(=O)c1cc(-c2ccc3ncnc(N4CCc5cc(F)c(Cl)cc54)c3c2)cnc1N | SF-268 CNS | 27.6% (inactive) |
| Cc1cc(=O)oc2cc(OCCCOc3ccc(/C=C/C(=O)Nc4ccc(Cl)cc4)cc3)ccc12 | SF-268 CNS | 66.9% (inactive) |
| O=C(N/N=C/c1ccc([N+](=O)[O-])o1)c1[nH]c2ccc(Br)cc2c1-c1ccccc1 | SF-268 CNS | 24.8% (inactive) |
| COc1ccc(/C=N/Nc2ccnc3cc(Cl)ccc23)cc1Cl | SF-268 CNS | -64.7% (active) |
| COC(=O)C1CCCN(S(=O)(=O)/N=C2\NC(=O)NC2=C(Cl)Cl)C1 (centres undefined) | SF-268 CNS | 106% (inactive) |
| CN(C)c1ccc(/C=C2\Cc3c(F)ccc(Br)c3C2=O)cc1 | SF-268 CNS | 101% (inactive) |
| NS(=O)(=O)c1ccc(Nc2nc(Nc3ccccc3)nc(-n3nc(-c4ccccc4)cc3-c3ccccc3)n2)cc1 | SF-268 CNS | 37.8% (inactive) |
| COc1ccc(-c2nn3c(-c4ccccc4F)nnc3s2)cc1 | SF-268 CNS | 74.2% (inactive) |
| CN(C)CCCOc1c2ccc(Cl)cc2nc2c1oc1ccc(Cl)cc12 | SF-268 CNS | 25.9% (inactive) |
| CO/N=C1\CCc2c(sc(NC(=O)c3cccc(C(F)(F)F)c3)c2C(N)=O)C1 | SF-268 CNS | 51.8% (inactive) |
| CN1C(=S)N(C)C2C1NN=C1SC(c3ccccc3)=CC(=O)N12 (centres undefined) | SF-268 CNS | 108% (inactive) |
